Items are presented alongside their recorded Stability in AB White, 21-25° C. (content by LCMSMS).
# assay_method_text: Stability of cannabinoid and Vitamin E components of Beverage 1 (AB White) stored at 8° C. and 21-25° C., LCMSMS over 570 days
# Assay type: physicochemical
# condition_description: beverage stored at 21-25° C., day 210
Respond numerically; units are µg/mL and should not be typed.

{"columns": ["molecule", "test_result"],
 "data": [
  ["C=C(C)[C@@H]1CCC(C)=C[C@H]1c1c(O)cc(CCCCC)c(C(=O)O)c1O", 1.73],
  ["CCCCCc1cc(O)c(C/C=C(\\C)CCC=C(C)C)c(O)c1", 4.75],
  ["CCCCCc1cc(O)c2c(c1)OC1(C)CCC3C1C2C3(C)C (stereo not shown)", 0.514]
]}

Shift focus to the following entry.
For the molecule shown here, CCCCCc1cc(O)c2c(c1)OC(C)(CCC=C(C)C)C=C2 (stereo not shown) , give the reported Stability in AB White, 21-25° C. (content by LCMSMS).
0.307

---

# Type: physicochemical
# condition_description: stored at room temperature (21-25° C.), day 570
Kindly return YES if reported Stability in Powder Concentrate (content by LCMSMS) is no lower than 0.5 mg/g powder; return NO if it is lower.

Some solved cases for reference:
{"columns": ["molecule", "answer_label"],
 "data": [
  ["C=C(C)[C@@H]1CCC(C)=C[C@H]1c1c(O)cc(CCC)cc1O", "NO"],
  ["CCCCCc1cc(O)c2c(c1)OC1(C)CCC3C1C2C3(C)C (stereo not drawn)", "NO"],
  ["CCCCCc1cc(O)c2c(c1)OC(C)(CCC=C(C)C)C=C2 (stereo not drawn)", "NO"]
]}

Assess whether reported Stability in Powder Concentrate (content by LCMSMS) for C=C(C)[C@@H]1CCC(C)=C[C@H]1c1c(O)cc(CCCCC)cc1O [CBD, cannabidiol, reference compound] sits at 0.5 mg/g powder or higher.
YES

For `CCCCCc1cc(O)c2c(c1)OC(C)(C)c1ccc(C)cc1-2` then?
NO

For `C=C(C)[C@@H]1CCC(C)=C[C@H]1c1c(O)cc(CCCCC)c(C(=O)O)c1O` then?
NO

---

# assay_method_text: Stability of cannabinoid and Vitamin E components of Beverage 2 (AB Red) stored at 8° C. and 21-25° C., LCMSMS over 570 days
# condition_description: 21-25° C., 3 days
assay_metric: Stability of Cannabinoids in AB Red (µg/mL)
Respond numerically; units are µg/mL and should not be typed.

These solved cases illustrate the format of a correct answer.
{"columns": ["compound", "units_label", "Stability of Cannabinoids in AB Red"],
 "data": [
  ["C=C(C)[C@@H]1CCC(C)=C[C@H]1c1c(O)cc(CCC)cc1O", "µg/mL", 0.20],
  ["CCCCCc1cc(O)c2c(c1)OC(C)(CCC=C(C)C)C=C2 (stereo not drawn)", "µg/mL", 0.29],
  ["CCCCCc1cc2c(c(O)c1C(=O)O)[C@@H]1C=C(C)CC[C@H]1C(C)(C)O2 [D9 THCA, delta-9-tetrahydrocannabinolic acid]", "µg/mL", 1.32],
  ["CCCCCc1cc(O)c(C/C=C(\\C)CCC=C(C)C)c(O)c1", "µg/mL", 4.71],
  ["C=C(C)[C@@H]1CCC(C)=C[C@H]1c1c(O)cc(CCCCC)c(C(=O)O)c1O", "µg/mL", 1.64]
]}

For the compound shown here, CCCCCc1cc(O)c2c(c1)OC(C)(C)[C@@H]1CCC(C)=C[C@@H]21 [D9 THC, delta-9-tetrahydrocannabinol, reference compound] , give the reported Stability of Cannabinoids in AB Red.
12.6

For CCCc1cc(O)c2c(c1)OC(C)(C)[C@@H]1CCC(C)=C[C@@H]21 [THCV, delta-9-tetrahydrocannabivarin] then?
3.25

For CCCCCc1cc(O)c2c(c1)OC1(C)CCC3C1C2C3(C)C (stereo not drawn) then?
0.50

For `CCCCCc1cc(O)c2c(c1)OC(C)(C)c1ccc(C)cc1-2` then?
2.78

---

# assay_method_text: Stability of cannabinoid and Vitamin E components of Beverage 2 (AB Red) stored at 8° C. and 21-25° C., LCMSMS over 570 days
# condition_description: 21-25° C., 120 days
assay_metric: Stability of Cannabinoids in AB Red
A bare number is not enough; add the unit after it.

These solved cases illustrate the format of a correct answer.
{"columns": ["compound", "assay_metric", "test_result"],
 "data": [
  ["CCCCCc1cc(O)c2c(c1)OC(C)(C)[C@@H]1CCC(C)=C[C@@H]21 [D9 THC, delta-9-tetrahydrocannabinol, reference compound]", "Stability of Cannabinoids in AB Red", "12.4 µg/mL"],
  ["CCCCCc1cc2c(c(O)c1C(=O)O)[C@@H]1C=C(C)CC[C@H]1C(C)(C)O2 [D9 THCA, delta-9-tetrahydrocannabinolic acid]", "Stability of Cannabinoids in AB Red", "1.34 µg/mL"],
  ["CCCc1cc(O)c2c(c1)OC(C)(C)[C@@H]1CCC(C)=C[C@@H]21 [THCV, delta-9-tetrahydrocannabivarin]", "Stability of Cannabinoids in AB Red", "3.09 µg/mL"],
  ["CCCCCc1cc(O)c2c(c1)OC(C)(C)c1ccc(C)cc1-2 [CBN, cannabinol]", "Stability of Cannabinoids in AB Red", "2.77 µg/mL"],
  ["CCCCCc1cc(O)c2c(c1)OC1(C)CCC3C1C2C3(C)C (stereo not drawn) [CBL, cannabicyclol]", "Stability of Cannabinoids in AB Red", "0.50 µg/mL"],
  ["CCCCCc1cc(O)c(C/C=C(\\C)CCC=C(C)C)c(O)c1 [CBG, cannabigerol]", "Stability of Cannabinoids in AB Red", "4.61 µg/mL"],
  ["C=C(C)[C@@H]1CCC(C)=C[C@H]1c1c(O)cc(CCCCC)c(C(=O)O)c1O [CBDA, cannabidiolic acid]", "Stability of Cannabinoids in AB Red", "1.64 µg/mL"],
  ["CCCCCc1cc(O)c2c(c1)OC(C)(CCC=C(C)C)C=C2 (stereo not drawn) [CBC, cannabichromene]", "Stability of Cannabinoids in AB Red", "0.29 µg/mL"]
]}

Shift focus to the following entry.
For the compound shown here, C=C(C)[C@@H]1CCC(C)=C[C@H]1c1c(O)cc(CCC)cc1O [CBDV, cannabidivarin] , give the reported Stability of Cannabinoids in AB Red.
0.19 µg/mL

---

Items are presented alongside their recorded Stability in Powder Concentrate (content by LCMSMS).
# Assay type: physicochemical
# condition_description: stored at room temperature (21-25° C.), day 30
A bare number is not enough; add the unit after it.

{"columns": ["compound", "test_result"],
 "data": [
  ["C=C(C)[C@@H]1CCC(C)=C[C@H]1c1c(O)cc(CCCCC)c(C(=O)O)c1O [CBDA, cannabidiolic acid]", "0.405 mg/g powder"],
  ["CCCCCc1cc2c(c(O)c1C(=O)O)[C@@H]1C=C(C)CC[C@H]1C(C)(C)O2 [D9 THCA, delta-9-tetrahydrocannabinolic acid]", "0.151 mg/g powder"],
  ["CCCCCc1cc(O)c2c(c1)OC(C)(C)c1ccc(C)cc1-2 [CBN, cannabinol]", "0.476 mg/g powder"]
]}

For the compound shown here, CC(=O)Oc1c(C)c(C)c2c(c1C)CCC(C)(CCC[C@H](C)CCC[C@H](C)CCCC(C)C)O2 (stereo partly drawn) [α-Tocopheryl acetate] , give the reported Stability in Powder Concentrate (content by LCMSMS).
2.08 mg/g powder

For CCCCCc1cc(O)c2c(c1)OC1(C)CCC3C1C2C3(C)C (stereo not shown) [CBL, cannabicyclol] then?
0.051 mg/g powder

---

# assay_method_text: Stability of cannabinoid and Vitamin E components of Beverage 2 (AB Red) stored at 8° C. and 21-25° C., LCMSMS over 570 days
# condition_description: 21-25° C., 19 days
// classify: if (Stability of Cannabinoids in AB Red < 2 µg/mL) TRUE else FALSE

{"columns": ["molecule", "answer_label"],
 "data": [
  ["C=C(C)[C@@H]1CCC(C)=C[C@H]1c1c(O)cc(CCCCC)c(C(=O)O)c1O", "TRUE"],
  ["CCCCCc1cc(O)c2c(c1)OC1(C)CCC3C1C2C3(C)C (centres unmarked)", "TRUE"],
  ["CCCc1cc(O)c2c(c1)OC(C)(C)[C@@H]1CCC(C)=C[C@@H]21 [THCV, delta-9-tetrahydrocannabivarin]", "FALSE"]
]}

Please determine if `CCCCCc1cc(O)c2c(c1)OC(C)(C)c1ccc(C)cc1-2` is below 2 µg/mL in terms of Stability of Cannabinoids in AB Red.
FALSE

For CCCCCc1cc2c(c(O)c1C(=O)O)[C@@H]1C=C(C)CC[C@H]1C(C)(C)O2 [D9 THCA, delta-9-tetrahydrocannabinolic acid] then?
TRUE
